- testDetails: soluble fraction after stress (log2 fold change); higher = more stays soluble; pooled small domains, quantitative proteomics
- reportedConditions: stress: pH 4
metric: soluble fraction (log2)

sequenceData	quantitativeResult
HMGWTTPAGIAVGMDKSVLQDAYGKEDDTFQDKGILYYQYFVHPSRMSGLSFGIKNDKIVSITAYMD	-1.23
HMKNDKLLIFMELKGISRTQLSKSTGIPASTLGRIINGDVQKIKAVYMEAIANALDTSIHTIFDV	-0.352
HMNHNPSIARKISREIKRGAPPESLLNLARTVNDSYYRSLSFVSIAYSIKGKKSKELFEEAISNLT	-0.0826
HMRTPLTGREEQVATLIGRGMTNSEIAESLSVDESTVKTHIGSILRKVHLRDRLQVALWFHGLPIE	-0.354
HMPYIVNHIHLKSEDPKITADWFVKAFNFEIVSDVVRHFGDRFIVTKAEGGMTINISGVRDGEEL	0.262
HMVPTVSVDRDDTLRFEGRPVDWDVLKRELGAVAGIDELKIYADAKVSALTVSKIMKSASEAGVLQFILVT	-0.334
HMTLHDLFPQAVEFVSEKEMISTAELQRKLMISYNSAAKIIDQLLHVDFIQKSESAGKYSVLIK	-0.486
HMEEHSLRKQEMLRIIEALEQLTPKEKTVVVLYYFKGVLFKDIAMLLDVTEGRISQLHTAAMGRLKKLMD	-0.632

---

- testDetails: soluble fraction after stress (log2 fold change); higher = more stays soluble; pooled small domains, quantitative proteomics
- reportedConditions: stress: pH 4
Listed below: soluble fraction (log2) values for each entry.
metric: soluble fraction (log2)

sequenceData	metric	quantitativeResult
HMYPTPAAANRHFLDKWGHQEAYLGKVLNSRSRASEILNGKRPLSLSDLRTLRDNLGIPVDLLL	soluble fraction (log2)	-0.421
HMNELIGVEQLQDLREAIADHGFAEQRVLNWLYQATKGQVSRLEQLPLPMLTTLHKKLGQWADAEAAASSA	soluble fraction (log2)	-0.499
HMAAQDLIVKTDASQVEARVLEISPDAVRYKRFSNPDGPTYVLPVAEIRYIRYANGEVEYYA	soluble fraction (log2)	-0.207
HMVDLEINGRQTLQFVANKYGIPVEKLATDLNIPSDRFGEKLGRLRRQYAFTMNDVRKSILKNK	soluble fraction (log2)	0.215

---

- testDetails: soluble fraction after stress (log2 fold change); higher = more stays soluble; pooled small domains, quantitative proteomics
- reportedConditions: stress: pH 4
metric: soluble fraction (log2)

sequenceData	quantitativeResult
HMADGEWAEMQRQLTAAGLLVVGRAAQERIQRLSDISPLIEAAQRSNVVMLSERTVDEVLTLVPT	-0.468
HMRMTKPLPFDLAAFRNEFGFTKSIIMQEVGVSRHIYDNVERTNATPPEFYDDFVSFFQRHGQ	-0.203
HMTDSDTQDIDVGELRVGHFVFLDLSWIRHPFPLSSFKIQSAEQIKTIRSLGLRRIRYSPGRSGP	-0.882
HMNLGLTGDPSVLYSILLQRGDSSRADLQRQTGWSLSKTTLVLNQLLAQKLIVQVGAGRSTQYRVIN	-0.196
HMSQIAENNQKYVGTIQKVLVEGTSKNNDDMLTGRTDSNKVVIFEGDKKLIGNMVELKIVSEHMWYLKGEL	-0.0811
HMAFKDDDVQKAYDRYMDRYGELSVLYSDNGLKVDDDLFYKNNIPPNGKFTKEFFDELYELVNMEFINNY	-0.538
HMTKIKAIFFDIDGTIRSFKTKTIPENTANTLKKLKEQGIKIFIATGRAPFHTTFLNDLLDFKFDGYITIN	-0.0405
HMSRVHHGFNISIARNRKGLKQAALADMLGISQQRLSQLENQRVVKDEILEKVSEATGVSVEDLKTIE	0.171
HMKIETVENPLLERTEISALFDSKSGSLTRKEAIDLISKKARIDSSTVYAIKLSNSSGSTRIIGLFY	0.00271
HMFEMPTSLVRTLSAIAIKQPVMQSEIIKLRGAGAYDHIKELIIRELVHRKEEGRSPILTTTKKFQEYFRL	-0.948
HMKHTVSVDRLQPGVFVSLGGLSWLDHPFLLNRFRLTDHDQIKVLRSLGVKEIEWDPTRSTAQPLPE	-0.724
HMLQKVELSDNEKFIFDSLQKEQKMALLRLKELVNLSNKAWDVSVKNLTKQGLVKVTKIDEELLIEI	-1.24
HMSTRKAFVNGDGVRLRSGPGTNHSIRASLTKGQTVFVTGTKDGWASVSVQGGASGWVSADLLKYE	0.237
HMEDEEILNEIRHTEQYVYYFGNYIMEHHVSRGLSKEKVIASLARELQIEIADIREDFDGMIEQIKTNILN	-0.416
HMIKLTVRQQEILDLIARSIDQTGFPPTRAEIAAELGFKSVNAAEEHLQALARKGVIEMVPGISRGIRLVQ	-0.306
HMHPRDREENKYLLLRGERIYEESIGEKRLYVEAALHKYEKALSSYDTGLIDEAKEEFKKFLEEIEEA	-0.438
HMKMQPVISQGVLYINNVTDVRTIEVFDISGRIVADAAASTTVNIAHLNEGPYIVKVTTVNGIESIKILNK	-0.889

---

- testDetails: soluble fraction after stress (log2 fold change); higher = more stays soluble; pooled small domains, quantitative proteomics
- reportedConditions: stress: pH 4
Outcome label depends on soluble fraction (log2) relative to -0.2: at/above gives true (1), below gives false (0).

sequenceData	classAssignment
HMAPGIGDSKYFSHIYEMKHIDTIIDNDKGDRLIEHFEIQDTPFIFTKHWTSAFGFSKRQQEIITDYLSYF	true (1)
HMEMDITIQMRTLVEELNRASDAYYNGRGELMTDYEWDAKFDQLKQLESQSGVVLPDSPTHRV	false (0)
HMVGIAEAMKHIADEDYGDLSAIFKQIFSDTDGGRNFSDAIRTQMRSTDSSGLRKVLSTLIMSIEE	false (0)
HMTADIRFLNSRKFYIYKVEKGETLFSISQKFNIPQEEIIQFNKDINQQGLKAKTKLWVPAYSWL	false (0)
HMNVEATAETLLALLKKNGGSLPFGDKSDPEAIQSQLKMSKKTFKKAAGTLFKKKLVRIEDHGIFL	true (1)
HMNDADAHASVDAALKHLEALAETTPEVRAALELVRRGPDGRVTVDSFARVAEALREISIAVGAS	false (0)
HMGEPLSPDARALTNVLRHYRGWAEPGELARKSGLGSRERVLTAAQSLVNAGLADIERGMVRPTAALMEVQ	true (1)
HMDEEQIASRRALIMRAAREIMETQGMEALSIRKIAAMIQQTPGIIYHYFSGKEELMLAVVQEGYH	false (0)
HMVSTGIMVVDGRGSVLQHNEAALRQLGVEVLTFESQVKEKLASEDFSVRETTAMLNGKKVRIIAFSDIR	false (0)
HMDAYDEVTTLSQMVASGKNTTVAHLKHLKEYHQTDYLRQAVEWLLSNRKNVSFSVDEVMQEVHN	false (0)
HMDELIKQVANYIINNRATINETAGAFGKSVSSIKKYINDADKLQRIDFELYQKVKEVQKIVELNGQI	false (0)
HMADDFISTLFSEGIIIDTEVKQFAERQGSPLQFVRHIASNLPEPRDIITMGEVRSVMREGA	false (0)
HMIDELNVGDIRFYLNRYGKEIQIEIIRIGDDGSVYARTMADNALFRVPEARLKNIGEKVPAEEVQRG	false (0)
HMAGIPIHMSQLKQIILLLSQGYPIKGIARETGVSRNTIKGYLQTLTSQDLNVTDALKLENIQLEYLLRSP	false (0)
HMREEMYGLIGFITTSEVTDTFGQMEIKLENEPEMRINVRTNPGESLARGDAAKIISFNNSNGTFLVELTK	false (0)
HMVKNVVIPDVSNKAPVDASNQLTDLGFEVVTEYKYIASDTIEEGKVVKTSPEIGSKRKYGQKITLYISSG	true (1)
HMTHFRTDERRREILSTIEADGRVSVSEIASRFDVSPVTIRSDLNYLAIQGKLKRVRGGAVLLDH	true (1)
HMEEEDELALFLREERKNYDLTLTDVHEKTGIPQKVLKEFQWGDAQLTDRQRYTLTQYVEEAREYFQENA	false (0)
HMPATPDATVQAVQQRLNELGYDVGSADGLMGRGTRSAIIAFQQDRGLAATGVADQALLLQLQP	true (1)
HMTAIWKTITATLTHDIATGKYAPGDRLPTEAQLAARFGVNRHTVRRAISDMNESGLTYSRRGAGVFVAQ	true (1)
HMLDYQLQVFKDTLEANRKHRGQKIVFIHGKGEGVLRRALIHALNYQYKKFTYQDASFREYGYGATQVTI	true (1)
HMPELTASDEADLKALVGGDQGFEQMANWARSNLGEEEINRFDAVVDSNNKDAIHMAIQAMQARMNA	false (0)
HMHNSPSPVATTILRFLQPVRAFVGDTEDMRTFGPFLREDVAMVPASQAKNLIRSGHAVEINP	true (1)
HMSDHSSLAGKEGVAVTPLRPAGTAEIDGKRMDVVTMGDYIKAGDHIKVVKVEGNRIIVAKN	true (1)
HMQNAMQKELIDAFQKAYPDLDITKIELVYGTYYEVEAMNSTTEFTYRYDQNSKTFILAEQDNADP	true (1)
HMKSAIKQNILLYLSNKGVTSYEFYKISGVTRGILQQSNGISEDNIAKFLAYAPDVNIEWLLTGKGDMLKH	false (0)
HMDNPKGNLQEAVQAKGNEPIEYRVLNVDGPDHAREFKIAVFIGGKRKGTGVGNSKKKAEEIAAEKAFKRM	true (1)
HMTKAGVDAWTRGDYAAAVKEWQAQAAKGDADAIFNLGQAFKLGKGVPQDLIKAEQLFGQAAA	false (0)
HMVAQQINDFRSERDASTGTLKRPLFDTLRDVISSRAQAYVSATGKPVTVEDLDRIYQAVEAEAKQAL	false (0)
HMAQRAADEARTHEILGLLRQARAALDHGGTARAARLRASIAEKLPAAPALPAWFARQLEQVDSQLAELQD	false (0)
HMSVSATQMDAFVRQLRARLSSADGLDDAARLVRQDLEPFLGRFSDETERDFAAAIEQVRGSIRPVEI	false (0)
HMAADRRKAERPLIDGQAVMDRFEVGPGPMVGKALKFLLALKRAEPDLDLAGTEERLDAWWNEQL	true (1)
